Values compiled from patent US20100291106A1.

target: T1, cynomolgus complement C3b protein (cynomolgus monkey (Macaca fascicularis)); test: SPR (Biacore T100), C3b captured by anti-C3d antibody, IgG as analyte, 1:1 model
T1 construct: also called cyno C3b; cynoC3b
A collection of binders and their measured koff
Write it as a number; the unit s⁻¹ goes unstated.

[[record]]
binder = "MOR09610 IgG (antibody, V domains shown, Germlined human IgG1 with leucines 234 and 235 changed to alanines, kappa; also called antibody 9610) VH: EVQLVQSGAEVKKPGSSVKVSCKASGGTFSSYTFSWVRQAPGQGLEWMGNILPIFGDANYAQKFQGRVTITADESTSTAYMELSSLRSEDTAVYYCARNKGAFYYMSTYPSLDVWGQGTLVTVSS VL: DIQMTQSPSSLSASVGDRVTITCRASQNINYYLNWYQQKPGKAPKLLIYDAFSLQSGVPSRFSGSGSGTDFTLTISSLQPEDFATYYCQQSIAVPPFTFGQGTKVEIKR"
numeric_value = "6.41e-05"

[[record]]
binder = "MOR09609 IgG (antibody, V domains shown, Germlined human IgG1 with leucines 234 and 235 changed to alanines, kappa; also called antibody 9609) VH: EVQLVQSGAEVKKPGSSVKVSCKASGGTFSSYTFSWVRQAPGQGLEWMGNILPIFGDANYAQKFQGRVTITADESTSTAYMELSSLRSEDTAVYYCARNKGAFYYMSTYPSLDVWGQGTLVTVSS VL: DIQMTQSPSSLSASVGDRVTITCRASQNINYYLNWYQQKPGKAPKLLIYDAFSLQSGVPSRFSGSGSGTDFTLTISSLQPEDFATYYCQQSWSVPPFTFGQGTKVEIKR"
numeric_value = "4.6e-05"

[[record]]
binder = "MOR09675 IgG (antibody, V domains shown, Germlined human IgG1 with leucines 234 and 235 changed to alanines, kappa; also called antibody 9675) VH: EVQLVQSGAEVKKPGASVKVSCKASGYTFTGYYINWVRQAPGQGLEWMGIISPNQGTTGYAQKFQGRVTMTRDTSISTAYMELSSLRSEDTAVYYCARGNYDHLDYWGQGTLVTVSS VL: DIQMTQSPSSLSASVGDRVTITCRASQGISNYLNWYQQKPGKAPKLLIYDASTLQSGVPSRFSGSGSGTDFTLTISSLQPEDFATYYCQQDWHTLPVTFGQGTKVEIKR"
numeric_value = 0.00029


Now consider the entry below.
Exercise: Data request, read-out koff, for MOR09674 IgG (antibody, V domains shown, Germlined human IgG1 with leucines 234 and 235 changed to alanines, lambda; also called antibody 9674) VH: EVQLVQSGAEVKKPGASVKVSCKASGYTFTSYSMHWVRQAPGQGLEWMGLINPYNGNTHYAQKFQGRVTMTRDTSISTAYMELSSLRSEDTAVYYCARMLRFDVWGQGTLVTVSS VL: ESALTQPASVSGSPGQSITISCTGTSSDGGGYNYVSWYQQHPGKAPKLMIYGVSNRPSGVSNRFSGSKSGNTASLTISGLQAEDEADYYCQTYTRYSDSPVFGGGTKLTVLG
Key: 5.95e-05
